- target: Tubulin (Bos taurus) (UniProt Q6B856+Q862L2+Q862F3)
- assay_name: The compound was evaluated for its effect on tubulin polymerization in the presence of MAPS as rate =change in OD340/min
- Assay type: protein assay
Hi there, I'd appreciate the recorded Rate (delta OD340 min-1) for every entry that follows.
Numbers only.

INSERT INTO measurements (line_notation, readout_type, data_value) VALUES
  ('NCCCNCCCCNCCCN', 'Rate (delta OD340 min-1)', 0.055),
  ('CCNCCCNCCCNCCCNC[C@@H](C)CC', 'Rate (delta OD340 min-1)', 0.021),
  ('CCNCCCNCCCNCCCNCC1CC1', 'Rate (delta OD340 min-1)', 0.036);

Moving on to the next compound.
Prompt: For the compound shown here, CCNCCCNCCCNCCCNCC1CCCCCC1 , give the reported Rate (delta OD340 min-1).
Completion: 0.25
